# Activity, No BP, DF-100000 values compiled below
# SYSTEM: T1, IL-18 receptors on HEK-Blue IL-18 reporter cells (UniProt Q13478 19-541; O95256 20-599, limits assumed); note: unit not given here
# T1 sequence (looked up) 1: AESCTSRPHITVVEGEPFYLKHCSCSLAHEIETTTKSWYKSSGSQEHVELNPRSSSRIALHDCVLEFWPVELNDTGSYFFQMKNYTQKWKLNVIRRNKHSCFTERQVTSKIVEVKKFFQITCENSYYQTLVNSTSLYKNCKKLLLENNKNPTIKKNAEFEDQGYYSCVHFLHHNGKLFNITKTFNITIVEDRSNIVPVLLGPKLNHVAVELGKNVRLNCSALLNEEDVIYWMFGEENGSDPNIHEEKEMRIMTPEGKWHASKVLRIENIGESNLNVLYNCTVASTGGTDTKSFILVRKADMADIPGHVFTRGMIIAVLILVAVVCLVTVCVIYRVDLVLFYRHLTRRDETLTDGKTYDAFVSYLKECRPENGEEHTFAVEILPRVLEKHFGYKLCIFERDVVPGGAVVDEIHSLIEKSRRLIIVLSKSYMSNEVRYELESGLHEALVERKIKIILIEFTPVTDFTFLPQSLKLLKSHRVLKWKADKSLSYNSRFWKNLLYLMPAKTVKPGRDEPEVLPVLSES
# T1 sequence (looked up) 2: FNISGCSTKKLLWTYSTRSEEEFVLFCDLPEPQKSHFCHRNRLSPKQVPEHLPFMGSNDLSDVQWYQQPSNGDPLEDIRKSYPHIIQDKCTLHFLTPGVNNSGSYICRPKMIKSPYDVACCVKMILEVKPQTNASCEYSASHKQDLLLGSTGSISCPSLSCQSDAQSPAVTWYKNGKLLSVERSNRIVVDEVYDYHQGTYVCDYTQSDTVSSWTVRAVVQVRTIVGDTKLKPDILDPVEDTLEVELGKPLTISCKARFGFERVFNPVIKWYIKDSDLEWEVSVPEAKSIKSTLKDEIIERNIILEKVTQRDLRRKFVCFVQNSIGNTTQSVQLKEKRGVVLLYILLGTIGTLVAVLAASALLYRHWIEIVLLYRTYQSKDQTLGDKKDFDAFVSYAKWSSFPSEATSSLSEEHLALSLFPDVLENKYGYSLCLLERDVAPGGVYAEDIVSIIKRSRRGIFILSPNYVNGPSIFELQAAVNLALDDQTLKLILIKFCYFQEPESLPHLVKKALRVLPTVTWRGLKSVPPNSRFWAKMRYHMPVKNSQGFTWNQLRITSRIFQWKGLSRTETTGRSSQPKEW
# PROTOCOL_TEXT: cell-based or functional assay

* IL-18 variant G3Q, E6K, D54S, S55P, T63S, N91S, R104Q (ligand) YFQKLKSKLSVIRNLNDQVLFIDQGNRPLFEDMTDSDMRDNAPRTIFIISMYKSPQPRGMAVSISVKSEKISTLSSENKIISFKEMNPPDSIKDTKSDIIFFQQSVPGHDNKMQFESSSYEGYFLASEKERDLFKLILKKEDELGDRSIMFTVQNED | 1.92

Consider the additional binder presented here.
Indicate its recorded Activity, No BP, DF-100000; the binder in question is IL-18 variant G3Q, E6S, S55V, T63A, N91T (ligand) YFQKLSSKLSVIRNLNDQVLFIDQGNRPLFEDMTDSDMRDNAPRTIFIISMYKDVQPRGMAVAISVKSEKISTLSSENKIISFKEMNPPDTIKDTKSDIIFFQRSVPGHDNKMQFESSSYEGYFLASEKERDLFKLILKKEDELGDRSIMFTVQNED
1.94
